- Test: yeast display, Sf9 membrane polyspecificity reagent, FACS + sequencing; frameworks hold sequencing errors
Measurement Label: polyreactivity (PSR sort gate)

QVQLVESGGGLVQAGGSLRLSCAASGSISGYYVMGWYRQAPGKERELVAAITWRGGSTYYADSVKGRFTISRDNAKNTVYLQMNSLKPEDTAVYYCNKVPGRRSTFEYWGQGTQVTVSS high polyreactivity
QVQLVESGGGLVQAGGSLRLSCAASGSTFAYNDMGWYRQAPGKERELVADIRSGGNTNYADSVKGRFTISRDNAKNTVYLQMNSLKPEDTAFYYCNVKYFVVAGYRYVKFDYWGQGTQVTVSS low polyreactivity
QVQLVESGGGLVQAGGSLRLSCAASGFTFVRNTMGWYRQPPGKETELVAAINRSGGNTYYADSVKGRFTISRDNAKNTVYLQMNCLKPEDTAVYYCAADGFGRRDYYYWGQGTQVTVSS high polyreactivity
QVQLVESGGGLVQAGGSLRLSCAASGLTFQTNAMGWYRQAPGKERELVAAISRRGSSTYYADSVKGRFTISRDNAKNTVYLQMNSLKPEDTAVYYCNAVRYLFIYPRYDYWGQGTQVTVAS high polyreactivity
QGQLVESGGGLVQAGGSLRLSCAASGSIFPDYAMGWYRQAPGKERELVAAITWRDDSTYYADSVKGRFTISRDNAKNTVYLQMNSLKPEDTAVYYCIASALDPLYAKDDYWGQGTQVTVSS low polyreactivity

---

- Test: yeast display, Sf9 membrane polyspecificity reagent, FACS + sequencing; frameworks hold sequencing errors
Measurement Label: polyreactivity (PSR sort gate)

QVQLVESGGGLVQAGGSLRLSCAASGRTFWYYTMGWYRQAPGKEWELVAAIRASGGGTYADSVKGLFTISRDNAKNTVYLQMNSLNPEDTAVYYCAVRNVYGWYGSRDYWGQGTQVTVSS high polyreactivity
QVQLVESGGGLVQAGGSLRLSCAASGRIFDDNTMGWYRQAPGKEREVVAAISVSGGRTYYADSVKGRFTISRDNAKNTVYIQMNSLKPEDTAVYYCNARLGPFWDYRLKNGTHDYWGQGTQVTVAS high polyreactivity
QVQLVESGGGLVQAGGSLRLSCAASGITFTRNVMGWYRQAPGKERELVAAISGSGGSTYYADSVKGRFTISRDNAKNTVYLQMNSLKPEDTAVYYCAARSRGGRRYDYWGQGTQVTVSS high polyreactivity
QVQLVESGGGLVQAGGSLRLSCAASGSTSYIYAMGWYRQAPGKERELVAAISKSGGRTYYADSVKGRFTISRDNAKNTVYLQMNSLKPEDTAVYYCAAVPGRTAEDYGEDYWGQGTQVTVSS high polyreactivity

---

- Test: yeast display, Sf9 membrane polyspecificity reagent, FACS + sequencing; frameworks hold sequencing errors
Measurement Label: polyreactivity (PSR sort gate)

QVQLVESGGGLVQAGGSLRLSCAASGSTFEGNDMGWYRQAPGKERELVASITSDTSTYADSVKGRFTISRDNAKNTVYLQMNSLKPEDTAVYYCNTGSYAETYYWITDPYDYWGQGTQVNVSS low polyreactivity
QVQLVESGGGLVQAGGSLRLSCAASGSTFLYYAMGWYRQAPGKERELVAVISWSGVSTYYADSVKGRFTISRDNAKNTVYLQMNSLKPEDTAVYYCNTGNHYIRTYGYWGQGSQVTVSS low polyreactivity
QVQLVESGGGLGQAGVSLRLSCAASGRIFYFNAMGWYRQAPGKEREMVAANSWSGGSTYYADSVKGRFTISRDNAKNTVYLQMNSLKPEDTAVYYCATDSYRQGDYYLGRVDYWGQGTQVTVSS low polyreactivity
QVQIEESGGGLVQAGRSLRLSCAASGFIFGSNAMGWYRQAPGKETELVAAISRSGGSTYYADSVKGRFTISRDYAKNTVYVQMNSLKPEDTAVYYGASYLYKTRYLTEYDYWGHGTQVTVSS high polyreactivity
QVQLVESGGGLVQAGGSLGLSCAASGSIFRGYAMGWYIQAPGKERELVAAITSSGGSTNYADSVKGRFTISRDNAKNTVYLQMNSLKPEDTAVYYCAAGVIREKYYIWSDYEYDYWGQGTQVNVSS low polyreactivity
QVQLVESGGGLVQAGGSLRLSCAASGITFSNSAMGWYRQAPGKERELVASITRRGTRTYYADSVKGRFTISRDNAKNTVYLQMNSLKPEDTAVYYCNRSFYSWIDLIYGGYDYWGQGTQVTVSS high polyreactivity
QVQLVESGGGLVQAGGSLRLSSAATGFTFDKYAMGWYRQAPGKERELVAASSGSGGTTYYADSVKGRFTISRDNAKNTVYLQMNSLKPEDTAVYYCATRLYSIYSYGYWGHGTQVTVSS high polyreactivity
QVQLVESGGGLVQAGGSLRLSCAASGSILGGNSMGWYRQATGKERVLVAAITFSGGGTYYADSVKGRFTISRDNAKKTVYLQMNSLKPEDSAVYYCAADKDGYTYEFDYWGQGTQVTVSS low polyreactivity
QVQLVESGGGLVQAGGSLRLSCAASGSTFTYNAMGWYRHAPGKERELVASISSGTTTYYADSVKGRFTISRDNAKNTVYLQLNSLKPEDTAVYFCAVDSWSRVQGWLAHNYDYWGQGTQVTVSS low polyreactivity
QVQLVESGGGLVQAGGSLRLSCAASGFIFGSNAMGWYRQAPGKERELVAAISRSGGSTYYADTVKGRFTISRDNAKNTVYLQMNSLKPEDTAVYYCNVDLWPFVYSWWSYDYWGQGTQVTVSS high polyreactivity
QVQLVESGGGLVQAGGSLRLSCAASGSTFYSNAMGWYRQAPGKERELVASISWSSGSTYYADSVKGRFTISRDNAKNTVYLQMNSLKPDDTAVYYCATDAGGPYRFGYWGQGTQVTVSS low polyreactivity
